- study_system: human AT1 receptor (Homo sapiens)
- Construct: expressed in transfected cells; host or cells: CHO-K1
- Sequence (P30556 whole entry): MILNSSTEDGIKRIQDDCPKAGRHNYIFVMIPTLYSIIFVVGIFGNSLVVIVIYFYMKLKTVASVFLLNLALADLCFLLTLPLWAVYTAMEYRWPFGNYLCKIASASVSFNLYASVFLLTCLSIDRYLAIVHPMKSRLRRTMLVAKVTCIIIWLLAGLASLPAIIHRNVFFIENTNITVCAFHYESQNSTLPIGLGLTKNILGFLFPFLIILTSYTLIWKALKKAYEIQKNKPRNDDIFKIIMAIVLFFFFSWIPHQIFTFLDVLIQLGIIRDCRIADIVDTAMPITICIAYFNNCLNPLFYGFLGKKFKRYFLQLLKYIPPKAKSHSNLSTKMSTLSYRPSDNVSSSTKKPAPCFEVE
- assay_comment: Binding assay using human AT1 receptor-expressing CHO-K1 cell membrane fraction ([125I]-angiotensin II)
- conditions: 22.5 pM [125I]-angiotensin II, 9 μg AT1 membrane, 1 hr room temperature; read-out: AT1 receptor binding inhibitory action (IC50 (nM))
- Protocol: The membrane fraction for human AT1 receptor binding assay was prepared as follows. CHO-K1 cell capable of stable expression of human AT1 receptor was cultured, recovered, suspended in homogenize buffer (10 mM NaHCO3 (pH 7.4), 5 mM EDTA, 1×Complete EDTA free) [manufactured by Roche, Switzerland], and homogenized. The homogenate was centrifuged at low-speed (900×g, 10 min, 4° C.), and the supernatant was recovered and ultracentrifuged (90,000×g, 1 hr, 4° C.). […]
Known IC50 of a selection of compounds
// units = nM; emit number, no label

Below, each entry is followed by its recorded IC50 result.
compound	IC50 [nM]
CCCCc1nc(C)n(-c2ccc3c(c2)CC(C)(C)O3)c(=O)c1Cc1ccc(-c2ccccc2-c2nsc(=O)[nH]2)cc1 [Example 128]	1.9
CCCc1nc(C)n(-c2ccc3c(c2)CCC(C)(C)O3)c(=O)c1Cc1ccc(-c2ccccc2-c2noc(=O)[nH]2)cc1 [Example 131]	2.2
CCCc1nc(CC)n(-c2ccc(OC3CCOC(C)C3)cc2)c(=O)c1Cc1ccc(-c2ccccc2-c2noc(=O)[nH]2)cc1 (stereo not drawn) [Example 424]	1.3
CCCCc1nc(CC)n(Cc2ccccc2)c(=O)c1Cc1ccc(-c2ccccc2-c2noc(=O)[nH]2)cc1 [Example 105]	1.9
CCCc1nc(CC)c(-c2ccc(OC(C)(C)CO)cc2)c(=O)n1Cc1ccc(-c2ccccc2-c2noc(=O)[nH]2)cc1F [Example 511]	1.3

Next item in the queue.
Recorded IC50 (compound CCCc1nc(CC)n(-c2cccc(C(C)(C)O)c2)c(=O)c1Cc1ccc(-c2ccccc2-c2noc(=O)[nH]2)cc1 [Example 365] ): 1.8

Values compiled from patent US20100056526A1.
